B1: PTPRD (parent)
chain: ELDELLKEISRKRRSIRYGREVEL

Variants of: B1
Experiment: protein stability index of a GFP-peptide fusion (GPS, HEK-293T) (PSI 1-6); higher = more stable;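 note: lentivirally expressed fusions sorted by FACS into six bins by GFP to DsRed ratio, PSI derived from sequencing read proportions per bin multiplied by bin number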
Settings: c terminus: a fixed tail appended
Item-by-item account of protein stability index
Please give the numeric answer without any surrounding text.

// known answers, use as guide
[[record]]
mutationlist = "R11D"
measuredresult = 4.06

[[record]]
mutationlist = "I9F"
measuredresult = 2.33


input: Give protein stability index for R14G
output: 3.16

input: Give protein stability index for R20P
output: 2.49

input: Give protein stability index for L6W
output: 1.5

input: Give protein stability index for K12R
output: 2.49

input: Give protein stability index for R17H
output: 2.06
